System: NCI-H522 lung
Run description: NCI-60 one-dose screen, 48 h (100 = growth as untreated, 0 = no growth, -100 = all killed)
Measurement context: 10 µM unless noted
The panel holds about 83,000 compounds, 20% with a hit somewhere; the sample as a whole holds those more often.
Tag: 1 (yes) if measured growth is not below 50%, 0 (no) if it is.

[[record]]
compound = "CC(C)CSc1nc(NCCc2c[nH]c3ccccc23)c(C#N)c(-c2ccccc2)n1"
class_assignment = "1 (yes)"

[[record]]
compound = "CCCCSc1nc(Nc2ccc(C(C)=O)cc2)c(C#N)c(-c2ccc(OC)cc2)n1"
class_assignment = "1 (yes)"

[[record]]
compound = "O=c1oc2ccccc2cc1-c1csc(N=Nc2c(O)[nH]c3ccc(Cl)cc23)n1"
class_assignment = "1 (yes)"

[[record]]
compound = "COc1ccc(Cc2nn(CC(=O)N/N=C/c3ccc(F)cc3)c(=O)c3c(C)noc23)cc1"
class_assignment = "1 (yes)"

[[record]]
compound = "COc1cccc(/C=C/C(=O)c2ccc(OC)c(S(N)(=O)=O)c2)c1"
class_assignment = "0 (no)"

[[record]]
compound = "Cc1ccc([C@H]2C(C(=O)c3ccc(Cl)cc3)C3(N[C@@H]2c2ccccc2)C(=O)Nc2ccccc23)cc1 (stereo partly specified)"
class_assignment = "0 (no)"

[[record]]
compound = "N#Cc1c(-c2ccccc2Cl)cc(-c2ccc3ccccc3c2)[nH]c1=O"
class_assignment = "1 (yes)"

[[record]]
compound = "COc1ccc(-c2nc(SC(C)C)nc(NCCc3c[nH]c4ccccc34)c2C#N)cc1"
class_assignment = "0 (no)"

[[record]]
compound = "NS(=O)(=O)c1ccc(-n2cc(-c3cccc(NC(=O)c4ccc(Cl)c(C(F)(F)F)c4)c3)nn2)cc1"
class_assignment = "0 (no)"


* * *

Test system: EKVX NSCLC
Run description: NCI-60 one-dose screen, 48 h
Measurement context: 10 µM unless noted
Compounds without any hit were thinned out: in the full panel of roughly 83,000, 20% have a hit. The source made the active and inactive calls. Rule for the calls: active = growth percent below 10; inactive = the rest.
Possible outcomes: active, inactive

[[record]]
compound = "COc1ccc(C2=NN(C(C)=O)C(c3ccc(OCc4ccc(Cl)cc4)c(OC)c3)C2)cc1OC (centres undefined)"
class_assignment = "inactive"

[[record]]
compound = "COc1cc(-c2ccc(/C=N/NC(=O)c3[nH]c4ccc(Br)cc4c3-c3ccccc3)s2)cc(OC)c1OC"
class_assignment = "inactive"

[[record]]
compound = "NS(=O)(=O)c1ccc(CCNC(=O)CSc2ccc(-c3ccc(Br)cc3)nn2)cc1"
class_assignment = "inactive"

[[record]]
compound = "CC(=O)Nc1ccc(-c2nc3cc(-c4ccc(O)cc4)ccc3n2C)cc1"
class_assignment = "inactive"

[[record]]
compound = "CCCCCCn1c(O)c(N=Nc2nc(-c3cc4ccccc4oc3=O)cs2)c2ccccc21"
class_assignment = "active"

[[record]]
compound = "O=c1c2ccccc2nc(-c2ccccc2)n1/N=C/c1ccc2ccccc2c1"
class_assignment = "inactive"

[[record]]
compound = "COc1cc2c(c(OC)c1OC)C(=O)CC(c1cccc(NC(=O)c3cc(NC(=O)[C@H](CO)NC(=O)OC(C)(C)C)ccc3Cl)c1)O2 (some centres undefined)"
class_assignment = "inactive"

[[record]]
compound = "C/C(=N\\N=C\\c1cc([N+](=O)[O-])ccc1Cl)c1ccc2c(c1)Nc1ccccc1S2"
class_assignment = "inactive"

[[record]]
compound = "CNS(=O)(=O)c1ccc(Nc2ccc(C(F)(F)F)cc2)c(-c2cn(C)cn2)c1"
class_assignment = "inactive"

[[record]]
compound = "Cc1ccc(/C=C/c2n(Cc3ccc4ccccc4c3)c3ccccc3[n+]2Cc2ccc3ccccc3c2)cc1"
class_assignment = "active"

[[record]]
compound = "CC1(C)CC[C@]2(C(=O)O)CC[C@]3(C)C(=CCC4[C@@]5(C)C[C@@H](O)[C@@H]6OC(c7ccccc7Br)OC[C@@]6(C)C5CC[C@]43C)C2C1 (some centres undefined)"
class_assignment = "inactive"

[[record]]
compound = "CCOc1ccc(C(=O)NC(=S)Nc2ccc(S(N)(=O)=O)cc2)cc1"
class_assignment = "inactive"

[[record]]
compound = "Cc1ccc(S(=O)(=O)c2nc(S(=O)(=O)c3ccc(C)cc3)c(Cl)s2)cc1"
class_assignment = "active"

[[record]]
compound = "COc1ccc(NC(=O)Cn2c(O)c(N=Nc3ccc(S(N)(=O)=O)cc3)c3ccccc32)cc1"
class_assignment = "inactive"

[[record]]
compound = "O=C(N/N=C/c1ccc(-c2ccc(O)cc2)s1)c1[nH]c2ccc(Br)cc2c1-c1ccccc1"
class_assignment = "inactive"

[[record]]
compound = "C=C1CC[C@@H]2[C@]3(C)COC(c4cn[nH]c4-c4ccc(F)cc4)O[C@@H]3CC[C@@]2(C)[C@@H]1C/C=C1/C(=O)OCC1O (some centres undefined)"
class_assignment = "active"

[[record]]
compound = "Nc1nnc(-c2c[nH]c3ncc(Br)cc23)c(-c2c[nH]c3ccc(F)cc23)n1"
class_assignment = "inactive"

[[record]]
compound = "O=C(/C=C/Nc1ccc2oc(=O)ccc2c1)c1cc2cc(Br)ccc2oc1=O"
class_assignment = "inactive"

[[record]]
compound = "CC1(c2cc3cc(Br)ccc3oc2=O)NC(=O)c2c(/C=C/C(=O)OC3CC4CCC3(C)C4(C)C)cccc2N1 (centres undefined)"
class_assignment = "inactive"

[[record]]
compound = "C=C1CC[C@@H]2[C@]3(C)COC(c4ccccc4)O[C@@H]3CC[C@@]2(C)[C@@H]1C/C=C1/C(=O)OCC1OC(C)=O (some centres undefined)"
class_assignment = "inactive"

[[record]]
compound = "CC(=O)OC[C@@]1(C)C2CC[C@]3(C)C(CC=C4C5CC(C)(C)CC[C@]5(C(=O)Nc5cccc(C)c5)CC[C@]43C)[C@@]2(C)C[C@@H](OC(C)=O)[C@@H]1OC(C)=O (some centres undefined)"
class_assignment = "inactive"

[[record]]
compound = "CCCCc1c(Nn2cnnn2)no[n+]1[O-]"
class_assignment = "inactive"

[[record]]
compound = "N#Cc1ccc(C(=O)Nn2c(N)cc3ccccc3c2=O)cc1"
class_assignment = "inactive"

[[record]]
compound = "COc1ccc(C(=O)/C=C/c2ccccc2Br)cc1S(N)(=O)=O"
class_assignment = "active"

